Taken from the supplement of paper PMC7125110.

Recorded measurements of self-cleavage kobs at 10000 uM GlcN6P, one per entry
B1: glmS ribozyme (parent)
chain: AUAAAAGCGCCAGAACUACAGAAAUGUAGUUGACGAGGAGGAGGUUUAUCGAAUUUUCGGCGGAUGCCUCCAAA

Variants of: B1
Test: self-cleavage kobs at 10000 uM GlcN6P; higher = faster cleavage; RNA array
Conditions: with glucosamine-6-phosphate
This sample holds only a part of the variants without activity.

• AUAAAAGCGCCAGGACUACAGAAAUGUAGUUGACGAGGAGGAGGUUUAUGGAAUUUUCGGCGGAUGCCUCUAAA [A14G C50G C71U] = 4.82e-05 s⁻¹
• AUAAAAGCGCCAGAACUACAGAAAUGUAGUUGACGAGGAGGAGGUUUAUCGAGUUAUCGGCGGAUGCCUCCAAA [A53G U56A] = 0.0137 s⁻¹
• AUAAAAGCGCCAGAAAUACAGAAAUGUAGUUGACGAGGAGGAGGUUUAUCGAAUUUUCGGCGGAUGCCUGCAAA [C16A C70G] = 3.56e-05 s⁻¹

Below: the item to evaluate.
input: Suppose we examine the variant AUAAAAGCGACGGAACUACAGAAAUGUAGUUGACGAGGAGGAGGUUUAUCGGAUUUUCGGCGGAUGCCUACAAA [C10A A12G A52G C70A] ; what self-cleavage kobs at 10000 uM GlcN6P value has been reported?
output: 6.91e-05 s⁻¹
